- test.target: T1, PSSWGPRPRRYTK-Biotin (human)
- T1 construct: Overlapping peptide of the outer loop of human LAG-3; also called LAG-3 Extra cyclic peptide
- T1 peptide: PSSWGPRPRRYTK-{Biotin′}
- measurement.description: peptide scanning ELISA, biotin peptide on streptavidin
Primed or numbered codes have the meaning given here. No end group written: not given here. Biotin′ = biotin label at the C-terminus

{"columns": ["binder", "binding result"],
 "data": [
  ["105F1E10 (mouse antibody purified from hybridoma) (antibody, V domains shown, also called mAb009-105F1E10) VH: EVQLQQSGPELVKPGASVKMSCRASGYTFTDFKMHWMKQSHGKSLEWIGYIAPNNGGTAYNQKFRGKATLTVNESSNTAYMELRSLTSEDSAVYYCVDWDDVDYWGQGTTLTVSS VL: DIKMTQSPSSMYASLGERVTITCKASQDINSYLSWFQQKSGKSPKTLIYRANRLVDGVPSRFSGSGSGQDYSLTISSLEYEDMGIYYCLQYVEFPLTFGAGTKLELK", "binds"],
  ["405B8H3 (mouse antibody purified from hybridoma) (antibody, V domains shown, also called mAb103-405B8H3; 405B81-13) VH: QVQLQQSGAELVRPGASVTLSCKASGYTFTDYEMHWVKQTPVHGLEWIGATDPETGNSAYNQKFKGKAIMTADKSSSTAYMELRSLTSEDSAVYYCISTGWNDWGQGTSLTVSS VL: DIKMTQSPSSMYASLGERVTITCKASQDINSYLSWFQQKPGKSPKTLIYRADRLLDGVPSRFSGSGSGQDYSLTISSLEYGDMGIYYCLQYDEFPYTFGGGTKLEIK", "binds"],
  ["409B11E12 (mouse antibody purified from hybridoma) (antibody, V domains shown, also called mAb104-409B11E12) VH: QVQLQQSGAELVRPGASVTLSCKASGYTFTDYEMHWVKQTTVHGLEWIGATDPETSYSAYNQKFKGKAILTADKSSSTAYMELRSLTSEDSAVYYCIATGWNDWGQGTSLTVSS VL: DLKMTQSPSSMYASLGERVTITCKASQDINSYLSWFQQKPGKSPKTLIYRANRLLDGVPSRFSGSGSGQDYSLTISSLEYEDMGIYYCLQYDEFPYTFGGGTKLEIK", "binds"],
  ["409D4E10 (mouse antibody purified from hybridoma) (antibody, V domains shown, also called mAb112-409D4E10) VH: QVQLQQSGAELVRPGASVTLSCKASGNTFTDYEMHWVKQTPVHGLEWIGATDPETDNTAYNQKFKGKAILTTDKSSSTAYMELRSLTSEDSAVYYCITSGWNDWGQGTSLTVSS VL: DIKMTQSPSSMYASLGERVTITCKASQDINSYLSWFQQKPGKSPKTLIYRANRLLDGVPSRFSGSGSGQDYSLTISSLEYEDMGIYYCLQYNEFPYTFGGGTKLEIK", "binds"]
]}
